- System: ACHN
- assay-details: NCI tumour cell line growth inhibition, 48 h
The source made the active and inactive calls. Cut-off read from the data, not from the text of the source: active = GI50 up to about 1.1 µM and inactive = higher.
// allowed return values: YES for active, NO for inactive

Q: Any idea what this test logged for CC(=O)O[C@H]1C(=O)[C@@]2(C)[C@H]([C@H](OC(=O)c3ccccc3)[C@]3(O)C[C@H](OC(=O)[C@H](OC(=O)OCCC(O)CO)[C@@H](NC(=O)c4ccccc4)c4ccccc4)C(C)=C1C3(C)C)[C@]1(OC(C)=O)CO[C@@H]1C[C@@H]2O (stereo partly drawn) ?
Ans: YES

Q: Then O=C1c2ccccc2C(=O)N1CCN(CCN1C(=O)c2ccccc2C1=O)Cc1ccccc1 ?
Ans: NO

Q: Then Cc1ccc2c(c1)CC1(Cc3cc(C)ccc3C1=O)C2=O ?
Ans: NO

Q: Then CC(C)(C)OC(=O)N1C(OP(=O)(Oc2ccccc2)Oc2ccccc2)=CSc2ccccc21 ?
Ans: NO

Q: Then COc1cc(COC(=O)N2CC=CC2C(=O)O)c([N+](=O)[O-])cc1OC (stereo not drawn) ?
Ans: NO

Q: Then O=[PH](O)c1cccnc1 ?
Ans: NO

Q: Then Cc1ncc([N+](=O)[O-])n1CCN(C)CCCCn1ccnc1[N+](=O)[O-] ?
Ans: NO

Q: Then CC(=O)Oc1ccc2c(c1)oc1c3ccc(OC(C)=O)cc3n(C)c(=O)c21 ?
Ans: NO

###

Please go through the items and note down their GI50.
- System: M14
- assay-details: NCI tumour cell line growth inhibition, 48 h
The source made the active and inactive calls. Rule as the data show it: active = GI50 up to about 1.1 µM and inactive = higher.

Q: Identify the measured GI50 of O=C(Nc1ccccc1)OC1OC(COC(=O)c2ccccc2)C(OC(=O)c2ccccc2)C1OS(=O)(=O)c1ccc([N+](=O)[O-])cc1 (stereo not drawn) for M14.
Ans: > 100 µM (inactive)

Q: Then Oc1c(Cl)c(Cl)c(Cl)c(Cl)c1Cl [PENTACHLOROPHENOL] ?
Ans: 20.9 µM (inactive)

Q: Then COc1ccc(NC(=O)CSc2nnc(-c3ccc(NC(C)=O)cc3)o2)cc1 ?
Ans: 17 µM (inactive)

###

- Test system: SK-MEL-5
- assay-details: NCI tumour cell line growth inhibition, 48 h
Activity calls are given as the source filed them. Rule as the data show it: active = GI50 up to about 1.1 µM and inactive = higher.
Please go through the items and note down their GI50.

Q: So what's the measured GI50 for this one? C[N+](C)(C)CC(=O)N/N=C/c1oc(-c2c(O)ccc3ccccc23)c(-c2c(O)ccc3ccccc23)c1[N+](=O)[O-]
Ans: 8.87 µM (inactive)

Q: Then N#Cc1c(O)c(C=O)c(=O)n2c1[nH]c1ccccc12 ?
Ans: > 100 µM (inactive)

Q: Then COc1ccccc1-n1c(NN)nc2ccc(Br)cc2c1=O ?
Ans: 19.3 µM (inactive)

Q: Then CC(=O)n1c2c(c(=O)n1-c1ccccc1)[S+]([O-])CCC2 (stereo unspecified) ?
Ans: 62.4 µM (inactive)

Q: Then CN(C)CC1CCC/C(=C\c2ccc(Cl)c(Cl)c2)C1=O (stereo unspecified) ?
Ans: 9.82 µM (inactive)

Q: Then CCNc1nc(N)c(C(=O)c2ccc(Cl)cc2)s1 ?
Ans: 27.7 µM (inactive)

###

Please go through the items and note down their GI50.
- Tested on: SK-MEL-28
- assay-details: NCI tumour cell line growth inhibition, 48 h
Active and inactive are the calls of the source. Rule as the data show it: active = GI50 up to about 1.1 µM and inactive = higher. Non-standard residues stand in square brackets, D forms with d. Residues, ends and D or L forms follow the SMILES beside them. ξ: configuration not given here. *: point of attachment. NMeF = CN[C@@H](Cc1ccccc1)C(=O)O; NMeN = CN[C@@H](CC(N)=O)C(=O)O; NMeV = CN[C@H](C(=O)O)C(C)C; ξNMeV = CNC(C(=O)O)C(C)C; Boc = CC(C)(C)OC(=O)*; ξNMeA = CNC(C)C(=O)O; ξV = CC(C)C(N)C(=O)O

Q: So what's the measured GI50 for this one? O=C1NC(=O)C(CCO)(c2ccccc2)C(=O)N1
Ans: > 100 µM (inactive)

Q: Then CC(=O)OC/C=C/[C@H](O[Si](C)(C)C(C)(C)C)[C@@H](O)/C=C/COC(C)=O ?
Ans: > 100 µM (inactive)

Q: Then COC(=O)C(C)N(C)C(=O)[C@H](CC(N)=O)N(C)C(=O)[C@@H]1CCCN1C(=O)[C@H](C(C)C)N(C)C(=O)C(C(C)C)N(C)C(=O)[C@H](Cc1ccccc1)N(C)C(=O)C(NC(=O)OC(C)(C)C)C(C)C (stereo partly specified) (Boc-[ξV][NMeF][ξNMeV][NMeV]P[NMeN][ξNMeA]-OMe) ?
Ans: 18.2 µM (inactive)

Q: Then O=C(O)C1CCc2nnc(-c3ccccc3)n21 (stereo unspecified) ?
Ans: > 100 µM (inactive)

Q: Then Cc1nn(C)c2c1C(=O)N(C)CC(=O)N2C ?
Ans: > 100 µM (inactive)

Q: Then N#Cc1c(NC(=S)NC(=O)c2ccccc2)nc2c(c1-c1ccccc1)CCCC2 ?
Ans: 78.7 µM (inactive)
